All figures here come from the nanobody polyreactivity screen of Harvey et al. (2022).

- protocol: yeast display, Sf9 membrane polyspecificity reagent, FACS + sequencing; frameworks hold sequencing errors
experimental.readout: polyreactivity (PSR sort gate)

QVQLVESGGGLVEAGGSLRLTCEASGSIISYYVMGWYRQAPGKERELVAAISSSGGRTYYADSVKGRFTISRDNSKNTVYLQMNSLKPDDNAVYYCAARDRPSPYYYWGQGTQVNVSS	high polyreactivity
QVQLVESGGGLVQAGGSLRLSCAASGSTFENNVMGWYRQAPGKERELVATITWGDGSTSYADSVKGRFTISRDNAKNTVYLQMNSLKPEDTAVYYCAADDRIGYGKNKDHDYWGQGTQVTVSS	low polyreactivity
QVQHVESAGGLVQAGGILRLSCAASGSTFVGNAMGWYRQAPGKEREWVATISNSGGRTDYADSVKGRFTISRDNAKNTVYLQMNSLKPEDTAVYYCAADHPAFGPGYSFDYWGQGTQVTVSS	low polyreactivity
QVQLVESGGGLVQAGGSLRLSCAATGSTFLVNAMGWYRQAPGKERELVAAISRGGSTYADSVKGRFTISRDNAKNTVYLQMYSMNPEDTAVYYCNARRYQSYRYYYWGQGTQVTVSS	high polyreactivity
QVQLVESGGGLVQAGGSLRLSCAASGFTFGSYVMGWYRQAPGKERELVADISIRGGSTYYADSVKGRFTISRDNSKNTVYLQMNSLKPEDTAVYYCAASYFPFNSGRKVGYWGQGTQVTVSS	low polyreactivity

[Q] Param item = "QVKLVESGGGLVQAGGSLRLSCAASGGNFYRYAMGWYRQAPGKERELVAAITRGDSTNYADSVKGRFTISRDNAKNTVYLQMNSLKPEDTAVYYCNAAVSARQNDTGGFQGDYWGQGTQVTVSS" ; retrieve measured polyreactivity (PSR sort gate).
[A] low polyreactivity

[Q] What measured polyreactivity (PSR sort gate) goes with "QVQLVESGGGLVQAGGSLRLSCAASGSIFYYYAMGWYRLAAGKERELVAAINSGGSTYADSVKGRFSISRDNAKNTVYLQMNSLIPEDSAVYYSATDIHSVDNNRDKHDYDYWGQGTQVTVSS" ?
[A] low polyreactivity

[Q] Bench note: what polyreactivity (PSR sort gate) did "QVQLVESGGGLVQAGGSLRLICAASGSTFELYAMGWYRQAPGKEREFVAAITYDSTYYADSVKGRFTISRDNAKNTVYLQMNSLKPEDTAVYYCAAAYWHYYYGWDMYYWGQGTQVTVSS" show?
[A] high polyreactivity

[Q] Fill blank: measured polyreactivity (PSR sort gate) of the sequence "QVQLVESGGGLVQAGGSLRLSCAASGRIFTRYAMGWYRQAPGKERELVAAITYSGGSTYYADSVKGRFTISRDNAKNTVYLQMNSLKPEDTAVYYCAAPYIGFVRHRKMGYWGQGTQVTVSS" is ____.
[A] low polyreactivity

[Q] So what's the measured polyreactivity (PSR sort gate) for this one? "QEQLQESGGGLVQAGGSLYLSCAASGNIFEYYDMGWYRQGKERELVAGISYGTNTNYAVSVKGRFTISRDIAKNTVYLQMNSLKPEDTAVYYCARRIGHGSRPYWLETWLYPYDYWGQGTQVTVSS"
[A] low polyreactivity

[Q] Data request, read-out polyreactivity (PSR sort gate), for "QVQLVESGGGLFQAGGSLRLSCAATGRTFDPYAMGWYRQAPGKERELVAVISISDGSTYYADSVKGRFTISRDNAKNTVYLQMHSLKPEDTAVYYCAAYVFYDYWTLEYWGQGTQVTVSS"
[A] high polyreactivity
